Method description: Cmax in human serum at 400 mg, po administered as single dose after 1 hr
Format: ADME, organism-based
Parameters: dose 400 mg, route oral
Readout: Cmax (ng/mL)
Give just the numeric value; ng/mL need not be written.

Challenge: I'd like to know its Cmax. The compound in question is COc1c(N2C[C@@H]3CCCN[C@@H]3C2)c(F)cc2c(=O)c(C(=O)O)cn(C3CC3)c12
Response given: 2500

###

Method description: Cmax in Staphylococcus aureus infected rabbit arthritis model at 45 mg/kg, po
Format: ADME, organism-based, Oryctolagus cuniculus
Parameters: dose 45 mg/kg, route oral
Cond: in vivo
Readout: Cmax (ng/mL)
Give just the numeric value; ng/mL need not be written.

Challenge: I'd like to know its Cmax. The compound in question is COc1c(N2C[C@@H]3CCCN[C@@H]3C2)c(F)cc2c(=O)c(C(=O)O)cn(C3CC3)c12
Response given: 2850
